Source of measurements: PubChem BioAssay AID743279

Listed here: items and their measured activity change.
assay: qHTS for Inhibitors of Inflammasome Signaling: IL-1-beta AlphaLISA Primary Screen; conditions: THP-1 LPS/ATP IL-1B secretion, 16 h; at 57.5 µM, stronger effect = lower value; also: % is scaled to controls: 0 for no effect and ±100 for the full control effect
Screen size: about 360,000 compounds; about 17,000 (4.7%) were called active. Roughly 5% stayed inconclusive and do not appear here. This excerpt belongs to a sample that is enriched for actives.

COMPOUND | UNITS LABEL | activity change
CCCn1c(N)c(C(=O)CSc2nnc(Cc3cccs3)n2C2CC2)c(=O)[nH]c1=O | % | -3.66
CCOc1ccc(Br)cc1S(=O)(=O)Nc1cccc(S(=O)(=O)N(CC)CC)c1 | % | -3.12
O=S(=O)(Nc1ccc(O)c2ccccc12)c1ccc(OC(F)(F)F)cc1 | % | -70.3
CN1CCN(c2ccc(NC(=O)c3ccc4c(c3)OCCO4)cc2Cl)CC1 | % | -72.6
O=C1NC[C@H](CCCCN2C[C@H](Cc3ccc(O)cc3)N(CC3CCCCC3)C(=O)C2=O)N(CCc2ccccc2)C1=O | % | 4.81
COC(=O)c1cc2n(n1)CCCNC2=O | % | -12.8
COc1ccc(/C=C/C(=O)c2ccc(OC)cc2O)cc1 | % | -98.1
C=CCC1(CC=C)CCCN1C(=O)c1cc(COc2ccc(-n3cncn3)cc2)on1 | % | -59.7
COc1ccc(-n2ncc3c(SCC(=O)NNC(C)=O)ncnc32)cc1 | % | -3.94
Cc1ccc(CNC(=O)Nc2nnc([C@H]3C[C@H](O)[C@@H](CO)O3)s2)cc1 | % | 3.84
O=C(Nc1ccc(NC(=O)c2ccc3c(c2)OCO3)cc1)c1cccc(Cl)c1 | % | 9.41
COc1cccc(CNC(=O)[C@@H]2CCCN2C(=O)[C@@H]2CCCN2C(=O)c2ccccc2)c1 | % | 0
Cc1nn(C)c(C)c1NS(=O)(=O)c1ccc(OC(F)(F)F)cc1 | % | 63
O=C(NCc1cccnc1)c1cc(C2CCCCN2C(=O)CCc2ccccc2)on1 (centres undefined) | % | 19.3
COc1ccc(C(O)(C2CCCCC2)C(CN2CCCC2)c2ccccc2)cc1 (centres undefined) | % | -54.5
COc1ccc(-c2cc(C(=O)N/N=C/c3cccnc3)c3ccccc3n2)c(OC)c1 | % | -5.72
O=C(O)c1ccc([N+](=O)[O-])cc1Sc1ccsc1 | % | 4.28
COc1ccc(CCNC(=O)Nc2ccc3c(c2)c(=O)n(C)n3C)cc1OC | % | -16.8
CCCC(O)(c1ccc(OC)cc1)C(CN(C)C)c1ccccc1 (centres undefined) | % | -9.06
CN1CCN(c2ccc(NC(=O)c3cc(Cl)c4c(c3)OCCO4)cc2)CC1 | % | -19
O=C(Nc1ccccc1)OCc1cn(-c2ccc(Cl)cc2)nn1 | % | 33.8
O=S(=O)(c1ccc(F)cc1)N1CCN(Cc2ccccc2C(F)(F)F)CC1 | % | 8.37
O=C(OCc1cn(-c2ccc(Cl)c(Cl)c2)nn1)c1ccccc1Cl | % | -2.76
O=c1[nH]nc(SCCS(=O)(=O)c2ccc(F)cc2)n1-c1ccccc1C(F)(F)F | % | -96.7
CC1=C(C(=O)N2CCOCC2)CC(CC(=O)NCCN2CCOCC2)C(=O)N1CCC1=CCCCC1 (centres undefined) | % | 11.4
Cc1ccc(S(=O)(=O)N2CCN(C(=O)c3cccs3)CC2)cc1 | % | 0
O=C(CSCc1ccc([N+](=O)[O-])cc1)Nc1cccc(C(=O)Nc2ccccc2C(=O)O)c1 | % | 13.4
COc1ccc(-c2nc3ccc(Br)cn3c2Cc2ccc(C)cc2)cc1OC | % | -15.5
CC(C)(COC(=O)Nc1ccccc1)COC(=O)Nc1ccccc1 | % | -50.5

* * *

Test: qHTS for Inhibitors of Inflammasome Signaling: IL-1-beta AlphaLISA Primary Screen
Settings: THP-1 LPS/ATP IL-1B secretion, 16 h; at 57.5 µM, stronger effect = lower value
From the text: Inflammasomes are a set of intracellular multi-protein complexes that enable autocatalytic activation of inflammatory caspases and drive the innate immune response to counter harmful agents. […] A qHTS assay, based on AlphaLISA technology, was developed to screen the Molecular Libraries Small Molecule Repository (MLSMR) to look for novel inflammasome inhibitors. The assay detects IL-1B using AlphaLISA anti-IL-1B acceptor and donor beads. […]
Screen size: about 360,000 compounds; about 17,000 (4.7%) were called active. Not shown: some 5% with an inconclusive outcome. The full list was thinned out, with actives kept by preference.
// boundary case: activity change equal to -20% maps to Criterion not met; strictly smaller maps to Criterion met

COMPOUND | DISCRETE LABEL
Cc1ccc(-c2noc(CSc3nnc(-c4ccncc4)n3-c3ccc(F)cc3)n2)cc1 | Criterion not met
O=C(NCc1ccccn1)Nc1ccc(Cl)cc1 | Criterion not met
C[C@H](CO)N1C[C@H](C)[C@@H](CN(C)S(=O)(=O)c2ccc(F)cc2)OCc2cnnn2CCCC1=O | Criterion not met
CC(C)S(=O)(=O)c1csc(NC(=O)Nc2ccc(Cl)cc2)c1Cl | Criterion met
CC(=O)c1nc2ccccc2n1Cc1ccccc1 | Criterion not met
COc1ccc(NC(=O)CN(C)C(=O)c2cc(C)oc2C)cc1 | Criterion not met
CC(=O)Oc1c(C(=O)c2nnc(C)o2)c(=O)n(Cc2ccccc2)c2ccccc12 | Criterion met
CC1Cc2[nH][nH]c(=O)c2C(C2CCCC2)O1 (centres undefined) | Criterion not met
Cc1ccc(-c2noc(CSc3nnnn3-c3ccccc3)n2)cc1 | Criterion met

* * *

test: qHTS for Inhibitors of Inflammasome Signaling: IL-1-beta AlphaLISA Primary Screen; settings: THP-1 LPS/ATP IL-1B secretion, 16 h; at 57.5 µM, stronger effect = lower value
Screen size: about 360,000 compounds; about 17,000 (4.7%) were called active. About 5% were inconclusive and are not listed. Only a selection was taken, and actives are over-represented in it overall.
ENDPOINT: activity change (%)

MOLECULE | ENDPOINT | OBSERVED MEASUREMENT
Cc1ccccc1NC(=O)CSc1nc2ccc(Nc3nc(N4CCOCC4)nc(N4CCOCC4)n3)cc2s1 | activity change | 0
Cc1ccc(CN2CCN(Cc3cn(C)nc3-c3ccccc3)CC2CCO)o1 (configuration not stated) | activity change | 40.4
Cn1ncc(Br)c1C(=O)NC1CCCC1 | activity change | -17.3
O=C(Nc1ccncc1)c1c(F)cccc1F | activity change | -66.7
CCC(C)N1C(=O)S/C(=C/c2ccc(Sc3nc4ccccc4[nH]3)o2)C1=O (configuration not stated) | activity change | -96.1
CC(=O)Oc1ccc(Cn2c(C)c(C(=O)NCc3ccc(C#N)cc3)sc2=O)cc1 | activity change | 8.83
COc1ccc(Br)cc1CN(C)C(=O)C1CC(=O)N(C2CCCC2)C1 (configuration not stated) | activity change | -16.8
COc1ccc(CN2CCN(Cc3cn(C)nc3-c3ccccc3)CC2CCO)c(C)c1C (configuration not stated) | activity change | -57.9
O=C(CC(O)(C(F)(F)F)C(F)(F)F)Nc1ccc(Cl)c(Cl)c1 | activity change | -71.8
Cc1ccc(C2C(C#N)C(C#N)N3CCCN23)cc1 (configuration not stated) | activity change | 0.442
COc1cc(NC(=O)Nc2ccc(C)cc2)cc([N+](=O)[O-])c1 | activity change | -21
Cc1sc2ncnc(N3CCC(C(=O)Nc4ccc(F)cc4Cl)CC3)c2c1C | activity change | -10.9
CC1=C[C@H]2Cc3cc(C)cc(C)c3S(=O)(=O)[C@@H]2C=C1 | activity change | -1.95
O=C(O)Cc1ccc(NC(=O)Nc2cccc3ccccc23)cc1 | activity change | 11.3
Cc1cc2ccccn2c1C(=O)c1cccc(S(=O)(=O)N2CCOCC2)c1 | activity change | -17.1
CS/C(=C\[N+](=O)[O-])Nc1ccc(C)cc1 | activity change | -131
O=C(Cc1cccc2ccccc12)NNC(=O)Nc1ccc(Cl)cc1 | activity change | -50
O=C(COC(=O)c1cc[n+]([O-])cc1)Nc1ccc(Cl)c(C(F)(F)F)c1 | activity change | 14.3
O=c1[nH]c(=S)[nH]c(O)c1/C=C1\C=Nc2ccccc21 | activity change | -3.38
Cc1cc(Br)ccc1NC(=O)c1sc2ncn(CC(=O)N3CCN(c4ccccn4)CC3)c(=O)c2c1C | activity change | 28.3
O=C(O)CSc1c2c(nc3cc(C(=O)Nc4cccc(C(F)(F)F)c4)ccc13)CCCC2 | activity change | -26.7
CCn1nc(C)c(CN2CCN(Cc3ccc(OC)c(C)c3C)C(CCO)C2)c1C (configuration not stated) | activity change | 9.61

* * *

assay: qHTS for Inhibitors of Inflammasome Signaling: IL-1-beta AlphaLISA Primary Screen; conditions: THP-1 LPS/ATP IL-1B secretion, 16 h; at 57.5 µM
Screen size: about 360,000 compounds; about 17,000 (4.7%) were called active. Inconclusive results (about 5%) are left out. Rule as the data show it: active = activity change below about -50%; inconclusive = mostly about -30% to -49%; inactive = weaker than that. Shown is part of a subset that was picked to be rich in actives.
Classes used: label 1 for active, label 0 for inactive

MOLECULE | DISCRETE LABEL
COc1ccc([C@H]2N[C@]3(CCCN(CC4CCCCC4)C3=O)[C@H]3C(=O)N(C)C(=O)[C@@H]23)cc1 | label 0
CCOc1nc(NCCN2CCOCC2)nc(Nc2ccc(C)cc2)n1 | label 0
CCC(C)Sc1nc(C)nc2c1c(=O)n(C)c(=O)n2C (stereo unspecified) | label 0
O=C1CCC(=O)N1CCC(=O)N(C(=O)NC1CCCCC1)C1CCCCC1 | label 0
Cc1ccc(-c2ccc(CN3C(C)C(=O)N(Cc4cn(CCC5OCCCO5)nn4)CCS3(=O)=O)cc2)cc1 (stereo unspecified) | label 0
CCn1ccnc1CN(C)C(=O)c1cc(COc2ccc(Cl)cc2OC)on1 | label 0
Cc1cccc(NC(=O)c2nc(S(=O)(=O)Cc3ccccc3)ncc2Cl)c1 | label 1
CC1(C)OC(=O)C2=C(C[C@@H](C3CC3)O[C@H]2CCc2cccc(Cl)c2)O1 | label 0
O=C1OC(Cc2ccccc2)C(c2ccccc2)C1=O (stereo unspecified) | label 0
O=C(COC(=O)COc1ccccc1F)Nc1cccc(S(=O)(=O)N2CCCCC2)c1 | label 0
Cc1cc(C)n(CC(=O)Nc2ccc([N+](=O)[O-])cc2)n1 | label 0
COc1cnn(-c2ccc([N+](=O)[O-])cc2)c(=O)c1Cl | label 0
CCOc1cc(/C=N/NC(=O)c2c(C)nc3ccc(Cl)cn23)ccc1O | label 0
O=C(COC(=O)/C=C/c1ccc(Cl)cc1)NC1CCS(=O)(=O)C1 (stereo unspecified) | label 0
Cc1ccc(-n2ncc3c(=O)n(-c4ccc(C)c(C)c4)c(-c4ccco4)nc32)cc1 | label 0
CN1C(=O)/C(=C/c2ccco2)SC1=Nc1cccc(C(=O)O)c1 | label 0
COc1cccc(NC(=O)C2(C)CCN2C(=O)CCC2CCCC2)c1 (stereo unspecified) | label 0
CSc1cccc(NC(=S)N(Cc2ccccc2)Cc2ccccn2)c1 | label 0
CC1Cc2ccccc2N1S(=O)(=O)c1cccc(C(=O)NCC(c2ccco2)N2CCCC2)c1 (stereo unspecified) | label 0
CC(=O)c1nn(-c2ccccc2)c(=Nc2ccccc2)cc1C | label 0
CCc1nnc(NC(=O)C2CCN(C(=O)c3ccccc3C)CC2)s1 | label 0
COCCNc1nc(NCc2ccc(NC(C)=O)cc2)c2sccc2n1 | label 0
CSc1ncnc2c1ncn2CCCNCC(C)c1ccccc1 (stereo unspecified) | label 0
COCCNc1nc(Nc2ccccc2Cl)c2sc(-c3ccccc3)cc2n1 | label 0
Cc1ccc(NS(=O)(=O)c2ccc(C(=O)NCCCN3CCOCC3)cc2)cc1 | label 0
O=C(O)CCn1cc(/C=C/C(=O)c2ccc(Cl)cc2)c(-c2cccc(Br)c2)n1 | label 1
CCOc1ccc(C(C)=O)cc1COC(=O)c1cnc(Cl)c(Cl)c1 | label 1
COc1ccc(CCNC(=O)c2c(C)nn(-c3ccccc3)c2Cl)cc1 | label 0
CCOc1ccc(C(C)=O)cc1COC(=O)CNC(=O)c1cccs1 | label 0
c1ccc2cc3c(NCCN4CCOCC4)ccnc3cc2c1 | label 1
CC1(C(=O)NS(=O)(=O)c2cccs2)CCN1C(=O)Cc1ccc(-c2ccccc2)cc1 (stereo unspecified) | label 0
